- Assay target: VEGFR-2 (Homo sapiens)
- Sequence (P35968 20-1356): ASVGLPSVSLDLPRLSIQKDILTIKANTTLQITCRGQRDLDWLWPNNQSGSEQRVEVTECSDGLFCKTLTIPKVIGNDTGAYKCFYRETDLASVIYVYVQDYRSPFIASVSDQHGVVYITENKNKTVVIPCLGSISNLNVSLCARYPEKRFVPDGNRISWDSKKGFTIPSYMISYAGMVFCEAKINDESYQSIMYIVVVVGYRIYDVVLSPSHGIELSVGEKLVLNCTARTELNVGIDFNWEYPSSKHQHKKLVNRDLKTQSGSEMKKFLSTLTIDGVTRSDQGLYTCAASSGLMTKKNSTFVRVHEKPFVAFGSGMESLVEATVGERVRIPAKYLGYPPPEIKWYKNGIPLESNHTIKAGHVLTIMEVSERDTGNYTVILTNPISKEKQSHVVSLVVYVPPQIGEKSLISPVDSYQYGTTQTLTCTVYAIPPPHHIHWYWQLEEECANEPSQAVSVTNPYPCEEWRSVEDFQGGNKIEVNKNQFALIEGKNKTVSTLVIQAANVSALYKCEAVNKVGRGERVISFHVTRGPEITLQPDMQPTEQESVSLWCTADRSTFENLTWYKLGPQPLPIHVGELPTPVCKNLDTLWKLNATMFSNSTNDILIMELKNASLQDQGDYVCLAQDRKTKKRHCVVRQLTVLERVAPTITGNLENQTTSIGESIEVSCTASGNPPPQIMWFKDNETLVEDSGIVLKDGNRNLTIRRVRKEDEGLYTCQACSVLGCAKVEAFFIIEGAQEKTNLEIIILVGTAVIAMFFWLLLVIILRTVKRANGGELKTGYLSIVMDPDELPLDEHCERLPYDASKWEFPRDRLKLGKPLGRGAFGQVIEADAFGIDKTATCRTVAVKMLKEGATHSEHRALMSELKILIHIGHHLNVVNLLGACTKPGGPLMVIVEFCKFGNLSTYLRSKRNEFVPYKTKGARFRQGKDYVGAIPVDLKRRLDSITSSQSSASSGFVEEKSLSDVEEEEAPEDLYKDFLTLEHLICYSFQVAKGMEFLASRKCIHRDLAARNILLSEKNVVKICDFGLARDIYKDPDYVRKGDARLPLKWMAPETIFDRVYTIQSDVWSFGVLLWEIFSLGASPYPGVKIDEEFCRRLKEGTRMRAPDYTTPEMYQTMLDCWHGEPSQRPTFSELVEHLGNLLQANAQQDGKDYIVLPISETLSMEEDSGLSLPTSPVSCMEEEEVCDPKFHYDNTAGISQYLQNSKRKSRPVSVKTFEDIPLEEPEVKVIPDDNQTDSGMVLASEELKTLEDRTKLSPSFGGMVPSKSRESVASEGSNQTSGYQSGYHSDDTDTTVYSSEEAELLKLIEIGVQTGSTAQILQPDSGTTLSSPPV
- Measurement description: In vitro VEGFR-2 inhibition assay (ELISA)
- Measurement context: read-out: IC50 (mean ± SD) VEGFR-2; average of three values
Endpoint label: pIC50
Convention used: pIC50 is expressed as -log10 of the molar concentration.

Use the examples below as a reference point.
>>> readout_number("CC(=O)OC[C@H]1O[C@@H](n2cc(CSc3nc4ccccc4c(=O)n3-c3ccccc3)nn2)[C@H](OC(C)=O)[C@@H](OC(C)=O)[C@H]1OC(C)=O")
4.49
>>> readout_number("CC(=O)OC[C@H]1O[C@@H](n2cc(CSc3nc4ccccc4c(=O)n3C)nn2)[C@H](OC(C)=O)[C@@H](OC(C)=O)[C@H]1OC(C)=O")
4.44
>>> readout_number("Cn1c(SCc2cn([C@@H]3O[C@H](CO)[C@H](O)[C@H](O)[C@H]3O)nn2)nc2ccccc2c1=O")
4.64
>>> readout_number("CC(=O)O[C@@H]1[C@@H](OC(C)=O)[C@H](OC(C)=O)CO[C@H]1n1cc(CSc2nc3ccccc3c(=O)n2C)nn1")
4.51

Query :: Any idea what its pIC50 is? The molecule is O=c1c2ccccc2nc(SCc2cn([C@@H]3OC[C@@H](O)[C@H](O)[C@H]3O)nn2)n1-c1ccccc1
Result :: 4.87

---

Below are pIC50 values measured for EGFR (Homo sapiens, UniProt P00533).
FYI, pIC50 means -log10 of a concentration in mol per litre.

Query :: Look up pIC50: CC(=O)OC[C@H]1O[C@@H](n2cc(CSc3nc4ccccc4c(=O)n3C)nn2)[C@H](OC(C)=O)[C@@H](OC(C)=O)[C@H]1OC(C)=O
Result :: 4.75

Query :: I have this molecule here, O=c1c2ccccc2nc(SCc2cn([C@@H]3OC[C@@H](O)[C@H](O)[C@H]3O)nn2)n1-c1ccccc1 , and I need its recorded pIC50.
Result :: 4.80

Query :: Recorded pIC50 of Cn1c(SCc2cn([C@@H]3OC[C@@H](O)[C@H](O)[C@H]3O)nn2)nc2ccccc2c1=O , please.
Result :: 6.51

---

- System: HepG-2 cell line
- Measurement description: MTT cytotoxicity assay, HepG-2
- Type: cell-based
- Measurement context: Homo sapiens, HepG2; HepG-2 liver cancer cells; 48 h incubation; mean of three values; read-out: IC50 (mean±SD) HepG-2
Endpoint label: pIC50
For clarity, pIC50 is expressed as the negative log10 of concentration in mol/L.

Query :: Dear colleague, I am looking for the recorded pIC50 of the following compound: CC(=O)O[C@@H]1[C@@H](OC(C)=O)[C@H](OC(C)=O)CO[C@H]1n1cc(CSc2nc3ccccc3c(=O)n2C)nn1
Result :: 4.64

---

- Tested on: HCT-116 cell line
- Measurement description: MTT cytotoxicity assay, HCT-116
- Assay type: cell-based
- Measurement context: Homo sapiens, HCT-116, 48 h, read-out: IC50 (mean±SD) HCT-116
Endpoint label: pIC50
Would you please state pIC50, meaning minus log10 of the concentration in mol/L, as a bare number?

Query :: Give the measured pIC50 of C#Cc1cccc(Nc2ncnc3cc(OCCOC)c(OCCOC)cc23)c1 [Erlotinib, reference compound] .
Result :: 5.14

---

// values below are reported melting point

Solved entries:
>>> result("CC(=O)O[C@@H]1[C@@H](OC(C)=O)[C@H](OC(C)=O)CO[C@H]1n1cc(CSc2nc3ccccc3c(=O)n2-c2ccccc2)nn1")
"210 to 212 °C"
>>> result("C#CCSc1nc2ccccc2c(=O)n1C")
"163 to 165 °C"
>>> result("CC(=O)OC[C@H]1O[C@@H](n2cc(CSc3nc4ccccc4c(=O)n3-c3ccccc3)nn2)[C@H](OC(C)=O)[C@@H](OC(C)=O)[C@H]1OC(C)=O")
"90 to 92 °C"

Query :: GET /values?readout=melting point&item= CC(=O)O[C@@H]1[C@@H](OC(C)=O)[C@H](OC(C)=O)CO[C@H]1n1cc(CSc2nc3ccccc3c(=O)n2C)nn1
Result :: 146 to 148 °C

---

- Test system: HepG-2 cell line
- Measurement description: MTT cytotoxicity assay, HepG-2
- Type: cell-based
- Measurement context: Homo sapiens, HepG2; HepG-2 liver cancer cells; 48 h incubation; mean of three values; read-out: IC50 (mean±SD) HepG-2
Entries whose IC50 is below 20 µM take T; entries at or above 20 µM take F.

>>> class_name("Cn1c(SCc2cn([C@@H]3OC[C@@H](O)[C@H](O)[C@H]3O)nn2)nc2ccccc2c1=O [Compound 13]")
"T"
>>> class_name("CC(=O)OC[C@H]1O[C@@H](n2cc(CSc3nc4ccccc4c(=O)n3-c3ccccc3)nn2)[C@H](OC(C)=O)[C@@H](OC(C)=O)[C@H]1OC(C)=O [Compound 6]")
"T"
>>> class_name("C#CCSc1nc2ccccc2c(=O)n1C [Compound 4]")
"F"
>>> class_name("O=c1c2ccccc2nc(S)n1-c1ccccc1 [Compound 1]")
"F"
>>> class_name("COc1cccc2c1C(=O)c1c(O)c3c(c(O)c1C2=O)C[C@@](O)(C(=O)CO)C[C@@H]3O[C@H]1C[C@H](N)[C@H](O)[C@H](C)O1 [Doxorubicin, reference compound]")
"T"
>>> class_name("Cn1c(SCc2cn([C@@H]3O[C@H](CO)[C@H](O)[C@H](O)[C@H]3O)nn2)nc2ccccc2c1=O [Compound 11]")
"T"
>>> class_name("Cn1c(S)nc2ccccc2c1=O [Compound 2]")
"F"
>>> class_name("O=c1c2ccccc2nc(SCc2cn([C@@H]3O[C@H](CO)[C@H](O)[C@H](O)[C@H]3O)nn2)n1-c1ccccc1 [Compound 10]")
"T"
>>> class_name("C#CCSc1nc2ccccc2c(=O)n1-c1ccccc1 [Compound 3]")
"F"
>>> class_name("O=c1c2ccccc2nc(SCc2cn([C@@H]3OC[C@@H](O)[C@H](O)[C@H]3O)nn2)n1-c1ccccc1 [Compound 12]")
"T"

Query :: Confirm or reject: IC50 of CC(=O)OC[C@H]1O[C@@H](n2cc(CSc3nc4ccccc4c(=O)n3C)nn2)[C@H](OC(C)=O)[C@@H](OC(C)=O)[C@H]1OC(C)=O [Compound 7] lies strictly below 20 µM
Result :: F

Query :: Decide: IC50 of CC(=O)O[C@@H]1[C@@H](OC(C)=O)[C@H](OC(C)=O)CO[C@H]1n1cc(CSc2nc3ccccc3c(=O)n2-c2ccccc2)nn1 [Compound 8] strictly below 20 µM?
Result :: F
